test: Human HepG2 cell viability assay in 384 well format; format: toxicity, cell-based; set-up: dose 125 nL, time 70.5 hour; concentration not given beside the values; conditions: HepG2 cells, read-out: Inhibition
QUANTITY_KIND: cytotoxicity at 70.5 h (%)
Field: numeric (%). Do not append units.

Worked set:
MOLECULE: CSC(C)CCN(Cc1ccccn1)Cc1sccc1C (stereo unspecified)
cytotoxicity at 70.5 h [%]: -4.96

MOLECULE: Cc1cc(NC(=O)CN2CCCC2c2noc(C3CC3)n2)on1 (stereo unspecified)
cytotoxicity at 70.5 h [%]: -7.03

MOLECULE: O=C(c1cccs1)N1CCOCC2(C1)CN(c1cccnc1)C(=O)CO2 (stereo unspecified)
cytotoxicity at 70.5 h [%]: -16.5

Input: Returns the measured cytotoxicity at 70.5 h for the input molecule. Input: Cc1ccc(CN(C)C(=O)CN2CCCC2Cn2cncn2)cc1 (stereo unspecified)
Output: -3.7

Input: Also need `Cc1cc(-c2cc(S(=O)(=O)N3C[C@H](C4CC4)[C@@H](N)C3)c(C)s2)[nH]n1` , thanks.
Output: -9.13

Input: Can you handle COc1cc2c(cc1OC)CN(C(=O)NC(C)c1nncn1C)CC2 (stereo unspecified) next?
Output: 26.1

----------
assay: Human HepG2 cell viability assay in 384 well format; assay type: toxicity, cell-based; design: dose 125 nL, time 70.5 hour; concentration not given beside the values; details: HepG2 cells, read-out: Inhibition
Measured cytotoxicity at 70.5 h, listed per entry for reference.
Please reply with the bare figure in % and do not write the unit itself.

COMPOUND: O=C(c1cc2c([nH]c1=O)CCC2)N1CCCC1c1ccccc1 (centres undefined)
READING_UNIT: %
OBSERVED: -4.54

COMPOUND: COc1ccc(Cc2nnc(SC)o2)cc1OC
READING_UNIT: %
OBSERVED: -2.03

COMPOUND: Cc1ccc(CN2CCOC3(COCCN(C(C)C)C3)C2)s1 (centres undefined)
READING_UNIT: %
OBSERVED: 18.3

COMPOUND: Cc1nc(-c2cccc(N3CCC(NC4CCOCC4)CC3)c2)cs1
READING_UNIT: %
OBSERVED: -3.92

COMPOUND: NC(=O)c1ccccc1NC(=O)CCN1CCN(c2ccccc2)CC1
READING_UNIT: %
OBSERVED: -9.88

Input: Which value of cytotoxicity at 70.5 h has been reported for Cc1cc(N2CCCC(c3[nH]ncc3Cc3ccccc3)C2)nc(N)n1 (centres undefined) in the records?
Output: 11.1

Input: Proceed to CC(O)CN1CCN(C(=O)c2ccc(Cn3cccn3)cc2)CC1 (centres undefined)
Output: -7.08

Input: Okay, and CC(=O)N(Cc1noc(C)n1)C1CCN(Cc2cnc(C)s2)C1 (centres undefined) ?
Output: -4.39

Input: Now consider `O=C(NCCN1CCCCC1)c1nc(-c2cccc3[nH]ccc23)no1` .
Output: 13.5

Input: Continue with Cc1cc(C)c(CNCC(O)c2ccc(F)c(F)c2)c(C)c1 (centres undefined)
Output: -11.4

Input: Try this compound too: CCN(CC)C(=O)CCNC(=O)N1CCC(c2ccccc2)C1 (centres undefined)
Output: -6.27

Input: Try the compound O=C(NCCNc1ncccn1)C1CC(=O)N(Cc2ccccc2)C1 (centres undefined)
Output: -8.64

Input: Field entry: `CCO[C@H]1COC[C@@H]1NC(=O)c1c[nH]nc1C1CCCCC1`
Output: 19.5

Input: Another: `CC(=O)c1cc(C(=O)NC2(c3ccccc3)CCC2)n(C)c1`
Output: -6.28

Input: Another compound: CCCC(C)(O)c1cc(C(N)=O)no1 (centres undefined)
Output: -9.46

----------
assay: Human HepG2 cell viability assay in 384 well format; format: toxicity, cell-based; set-up: dose 125 nL, time 70.5 hour; concentration not given beside the values; conditions: HepG2 cells, read-out: Inhibition
QUANTITY_KIND: cytotoxicity at 70.5 h (%)
Please state the figure in %; there is no need to write the unit.

MOLECULE: CNc1nccc(-c2cnc3sc(C)c(C)n3c2=O)n1
QUANTITY_KIND: cytotoxicity at 70.5 h
READING_UNIT: %
OBSERVED: 0.0839

Input: cytotoxicity at 70.5 h for `Cc1ccc(CNC(=O)NCc2csc(C)n2)cn1` ?
Output: -21.2

Input: Follow-up item: COC1CCN(C(=O)Nc2ccccc2)CC(=O)N(C)c2ccccc21 (stereo unspecified)
Output: -6.71

Input: Likewise for `C[C@H](NC(=O)N1CCN(c2ccc(Cl)cc2)CC1)C(=O)N1CCSCC1` ?
Output: -14.7

Input: And what about the molecule `c1ccc(CCN2C[C@@H]3OCCN(c4ncccn4)[C@@H]3C2)cc1` ?
Output: -9.92

Input: Here is the next molecule: `COc1ncnc2c1CCN(C(=O)NCc1cccnc1)CC2`
Output: 1.49

Input: Ok, now CC(C(=O)NCc1ccc(-n2cncn2)nc1)n1ccnc1 (stereo unspecified)
Output: -18

Input: Now this one: `Cn1cc(CN2CCC(CCC(=O)Nc3ccccc3Cl)CC2)cn1`
Output: 4.76

Input: Entry to check: `CCN(C(=O)Cn1cc(NC(=O)C(C)(C)C)cn1)c1ccccc1`
Output: -0.681

Input: And Cc1ccc(CN2CCNC(=O)C2CC(=O)N2CCSCC2)o1 (stereo unspecified) ?
Output: 2.5

Input: What about Cn1ccnc1CC1CCCN(C(=O)Nc2cccn(C)c2=O)C1 (stereo unspecified) ?
Output: -2.41

----------
Listing of entries alongside the reported cytotoxicity at 70.5 h.
experiment: Human HepG2 cell viability assay in 384 well format; format: toxicity, cell-based; design: dose 125 nL, time 70.5 hour; concentration not given beside the values; conditions: HepG2 cells, read-out: Inhibition

In the examples that follow, each entry is paired with its recorded cytotoxicity at 70.5 h.
COMPOUND: CC(C)c1ccc(CN2CCCC3(CC2)CN(C)C(=O)O3)cc1 (configuration not stated)
cytotoxicity at 70.5 h: -1.93%

COMPOUND: Cc1nc(CC(=O)N2CCCN(c3ccc(C#N)cc3)CC2)cs1
cytotoxicity at 70.5 h: -8.68%

COMPOUND: Cc1cccc(-c2nnc(C(C)N3CCn4c(C)nnc4C3)o2)c1 (configuration not stated)
cytotoxicity at 70.5 h: -12.4%

COMPOUND: Cc1nc(CN2CCC(CNC(=O)C3CCOC3)CC2)oc1C (configuration not stated)
cytotoxicity at 70.5 h: 16.3%

COMPOUND: COc1ccc(CN(C(=O)CCC(C)C)c2cnn(C)c2)c(OC)c1
cytotoxicity at 70.5 h: -4.57%

COMPOUND: COc1ccc2c(C)c(C(=O)NCC3CN(S(C)(=O)=O)CCO3)oc2c1 (configuration not stated)
cytotoxicity at 70.5 h: 16.6%

Input: Item O=C1CC(N(C(=O)c2ccc(Oc3ccccc3)cc2)C2CC2)C(=O)N1 (configuration not stated) has what recorded cytotoxicity at 70.5 h?
Output: -4.82%

Input: Also need Cc1ccc(Cl)c(NC(=O)NC2(C)CCOC2)c1 (configuration not stated) , thanks.
Output: -5.5%

Input: Now consider `CC(=O)c1ccc(N2CCN(C(=O)c3cnn4c3OCCC4)CC2)cc1` and answer again.
Output: 1.33%

Input: Also `CC(C)(C)c1cnc(CNc2cccc(Cn3cnnc3)c2)o1` , if possible.
Output: -2.54%

Input: // query: `O=C(COCC1CC1)Nc1ncccc1I`
Output: 2.42%

Input: Same thing, different compound: `COc1c(CNCc2ccnc(N3CCOCC3)c2)c(C)nn1C`
Output: -3.59%

----------
experiment: Human HepG2 cell viability assay in 384 well format; type: toxicity, cell-based; parameters: dose 125 nL, time 70.5 hour; concentration not given beside the values; conditions: HepG2 cells, read-out: Inhibition
Recorded cytotoxicity at 70.5 h values for a group of compounds are listed next.
Your answer should be a plain number; it is taken to be in %.

Take a look at these entries with their results.
COMPOUND: O=C(Cn1ccnc1)N1C[C@@H]2CC[C@H](Oc3ccc(Cl)cc3)[C@@H]2C1
QUANTITY_KIND: cytotoxicity at 70.5 h
OBSERVED: 0.299
--
COMPOUND: O=C(CCc1cc(Br)cs1)NCCCn1ccnc1
QUANTITY_KIND: cytotoxicity at 70.5 h
OBSERVED: 5.85
--
COMPOUND: CCOc1ccc(CNC(C)c2ccc3[nH]c(=O)[nH]c3c2)cc1 (stereo unspecified)
QUANTITY_KIND: cytotoxicity at 70.5 h
OBSERVED: 1.32
--
COMPOUND: CC(C)[C@H](NC(=O)NC1CCS(=O)(=O)C1)C(=O)NCc1ccc(Cl)cc1 (stereo partly specified)
QUANTITY_KIND: cytotoxicity at 70.5 h
OBSERVED: -18.2
--
COMPOUND: Cc1ccccc1-n1c(C)cc(C(=O)N2CCn3c(C)nnc3C2)c1C
QUANTITY_KIND: cytotoxicity at 70.5 h
OBSERVED: -1.44
--
COMPOUND: CC(=O)Nc1nc(C(=O)N2CCCC2c2ccc(Br)cc2)cs1 (stereo unspecified)
QUANTITY_KIND: cytotoxicity at 70.5 h
OBSERVED: 3.74

Input: Using the record for COC(CNC(=O)NCc1c(C)cc(C)[nH]c1=O)c1ccccc1 (stereo unspecified) , report its cytotoxicity at 70.5 h.
Output: -12.2

Input: Lookup Cc1cc(C)nc(Nc2cccc(C3CCCN(C)C3)n2)n1 (stereo unspecified)
Output: 0.625

Input: And the next one, `COCC(=O)N1CC[C@@H]2O[C@H](COCc3csc(C)n3)CC[C@@H]21` ?
Output: -4.59

Input: # iterate: `N[C@@H]1c2ccccc2C2(CCN(c3cccc(C(F)(F)F)n3)CC2)[C@H]1O`
Output: 5.4

Input: Please give the result for `CC(=O)NCCNC(=O)c1sc(-c2ccc(C)cc2C)nc1C` too.
Output: 0.801

# credit: ChEMBL document CHEMBL3507680
